species on record: Rattus norvegicus; test: Open TG-GATES - Regimen: Daily Repeat; assay type: toxicity, organism-based, Sprague-Dawley; design: regimen Daily Repeat, gender Male, age 6 weeks; details: in vivo, po, 0 mg/kg, […], tissue Blood, route gavage, dose level Control, time 7 day
Below, each of the molecules is paired with its reported MCH value.
Respond with the figure and its unit, in that order.

Past entries and their recorded results:
- CN1C(=O)OC(C)(C)C1=O [TRIMETHADIONE]: 21.4 pg
- CCc1oc2ccccc2c1C(=O)c1cc(I)c(O)c(I)c1 [BENZIODARONE]: 21.4 pg
- C[C@](N)(Cc1ccc(O)c(O)c1)C(=O)O [METHYLDOPA]: 21 pg
- CCSCC[C@H](N)C(=O)O [ETHIONINE]: 21.1 pg

Consider C[C@]12CCC(=O)C=C1CC[C@@H]1[C@@H]2CC[C@@]2(C)[C@H]1CC[C@]2(C)O [METHYLTESTOSTERONE] . Its measured MCH is 21.4 pg

---

organism: Rattus norvegicus; test: Open TG-GATES - Regimen: Daily Repeat; format: toxicity, organism-based, Sprague-Dawley; parameters: regimen Daily Repeat, gender Male, age 6 weeks; conditions: in vivo, po, 0 mg/kg, 72 h, tissue Kidney, route gavage, dose level Control, time 3 day
Recorded KIDNEY_TOTAL for the following compounds
The reply should be a number in g, with the unit left off.

Known KIDNEY_TOTAL results, listed for orientation:
* CC(=N)S [THIOACETAMIDE] | 2
* Nc1nc(N)c2nc(-c3ccccc3)c(N)nc2n1 | 2.1
* C[C@]12CCC(=O)C=C1CC[C@@H]1[C@@H]2CC[C@@]2(C)[C@H]1CC[C@]2(C)O [METHYLTESTOSTERONE] | 2

Then this compound:
So for CCc1oc2ccccc2c1C(=O)c1cc(I)c(O)c(I)c1 [BENZIODARONE] , the logged KIDNEY_TOTAL turned out to be 2.2

---

organism: Rattus norvegicus; experiment: Open TG-GATES - Regimen: Daily Repeat; type: toxicity, organism-based, Sprague-Dawley; set-up: regimen Daily Repeat, gender Male, age 6 weeks; details: in vivo, po, 1000 mg/kg, […], tissue Plasma, route gavage, dose level High, time 7 day
Catalogue of IP readings, one per entry.
Your answer is read as mg/dL, so omit the unit and give the number.

Consider the worked cases shown below.
* O=C(O)c1cccnc1 | 7.5
* O=C(N[C@H](CO)[C@H](O)c1ccc([N+](=O)[O-])cc1)C(Cl)Cl | 8.8
* CC(C)(S)[C@@H](N)C(=O)O | 6.9

Read the next record carefully.
Lab note: measured IP of CCN1CCCC1CNC(=O)c1cc(S(N)(=O)=O)ccc1OC (centres undefined) [SULPIRIDE] was 8

---

organism: Rattus norvegicus; assay: Open TG-GATES - Regimen: Daily Repeat; format: toxicity, organism-based, Sprague-Dawley; set-up: regimen Daily Repeat, gender Male, age 6 weeks; details: in vivo, po, 300 mg/kg, […], tissue Plasma, route gavage, dose level Middle, time 7 day
Known ALP of a selection of molecules
Please state the figure in IU/L; there is no need to write the unit.

molecule CC(C)(S)[C@@H](N)C(=O)O , ALP observed: 1362.2

---

Each record here notes measured TERMINAL_BW.
species: Rattus norvegicus; assay: Open TG-GATES - Regimen: Daily Repeat; type: toxicity, organism-based, Sprague-Dawley; design: regimen Daily Repeat, gender Male, age 6 weeks; settings: in vivo, po, 300 mg/kg, […], route gavage, dose level Middle, time 14 day
Write the value in g as a bare number.

The molecule identified as O=C(N[C@H](CO)[C@H](O)c1ccc([N+](=O)[O-])cc1)C(Cl)Cl registered its TERMINAL_BW at 349.1

GET /value?item= CC(C)(S)[C@@H](N)C(=O)O &field=TERMINAL_BW returns 321.5

For O=C(O)c1cccnc1 the molecule record lists TERMINAL_BW as 321.5

GET /value?item= CCN1CCCC1CNC(=O)c1cc(S(N)(=O)=O)ccc1OC (centres undefined) [SULPIRIDE] &field=TERMINAL_BW returns 329.3

---

Reported CRE values for the following compounds.
organism: Rattus norvegicus; assay: Open TG-GATES - Regimen: Daily Repeat; type: toxicity, organism-based, Sprague-Dawley; design: regimen Daily Repeat, gender Male, age 6 weeks; conditions: in vivo, po, 0 mg/kg, 72 h, tissue Plasma, route gavage, dose level Control, time 3 day
Write the number in mg/dL without appending the unit.

- CCc1oc2ccccc2c1C(=O)c1cc(I)c(O)c(I)c1: 0.5
- Nc1nc(N)c2nc(-c3ccccc3)c(N)nc2n1: 0.2
- CC(=O)Oc1cc(C(C)C)c(OCCN(C)C)cc1C: 0.2
- CCSCC[C@H](N)C(=O)O: 0.4
- C#C[C@]1(O)CC[C@H]2[C@@H]3CCc4cc(O)ccc4[C@H]3CC[C@@]21C: 0.2
- CCN1CCCC1CNC(=O)c1cc(S(N)(=O)=O)ccc1OC (stereo unspecified) [SULPIRIDE]: 0.2
- CC(C)(S)[C@@H](N)C(=O)O: 0.2
- CC(C)C(=O)Nc1ccc([N+](=O)[O-])c(C(F)(F)F)c1 [FLUTAMIDE]: 0.4
- O=C(O)c1cccnc1: 0.2
- CN1C(=O)OC(C)(C)C1=O: 0.2

Entry Oc1ncnc2[nH]ncc12 — recorded CRE = 0.5

---

Catalogue of TP values
organism: Rattus norvegicus; experiment: Open TG-GATES - Regimen: Single; assay type: toxicity, organism-based, Sprague-Dawley; set-up: regimen Single, gender Male, age 6 weeks; settings: in vivo, po, 0 mg/kg, 9 h, tissue Plasma, route gavage, dose level Control
All answers are understood in g/dL, so give the number only.

Consider the reported TP for these compounds:
- CCC(C)(C)C(=O)O[C@H]1C[C@@H](C)C=C2C=C[C@H](C)[C@H](CC[C@@H]3C[C@@H](O)CC(=O)O3)[C@H]21: 5.2
- Oc1ncnc2[nH]ncc12: 5.7
- O=C(O)c1cccnc1: 5.5
- C[C@](N)(Cc1ccc(O)c(O)c1)C(=O)O: 5.1
- CC(=N)S [THIOACETAMIDE]: 5.6

Now for a further compound.
GET /value?item= O=C(N[C@H](CO)[C@H](O)c1ccc([N+](=O)[O-])cc1)C(Cl)Cl &field=TP returns 5.4

---

species on record: Rattus norvegicus; experiment: Open TG-GATES - Regimen: Daily Repeat; format: toxicity, organism-based, Sprague-Dawley; parameters: regimen Daily Repeat, gender Male, age 6 weeks; conditions: in vivo, po, 1000 mg/kg, […], tissue Plasma, route gavage, dose level High, time 14 day
Recorded TP by entry
Record the value in g/dL, omitting the unit from your answer.

Use the examples below as a reference point.
• CC(C)(S)[C@@H](N)C(=O)O [PENICILLAMINE] = 5.8
• CCN1CCCC1CNC(=O)c1cc(S(N)(=O)=O)ccc1OC (centres undefined) [SULPIRIDE] = 5.9
• O=C(O)c1cccnc1 [NIACIN] = 5.7

Kindly consider the entry below.
Memo: O=C(N[C@H](CO)[C@H](O)c1ccc([N+](=O)[O-])cc1)C(Cl)Cl [CHLORAMPHENICOL] , reported TP: 5.7

---

organism: Rattus norvegicus; assay: Open TG-GATES - Regimen: Daily Repeat; format: toxicity, organism-based, Sprague-Dawley; design: regimen Daily Repeat, gender Male, age 6 weeks; conditions: in vivo, po, 1000 mg/kg, […], tissue Plasma, route gavage, dose level High, time 14 day
Measured ALP by item
Express it in IU/L; write the number only.

Solved cases below.
* O=C(O)c1cccnc1 | 1458
* O=C(N[C@H](CO)[C@H](O)c1ccc([N+](=O)[O-])cc1)C(Cl)Cl | 1573.2
* CC(C)(S)[C@@H](N)C(=O)O | 881.6

The reported value for CCN1CCCC1CNC(=O)c1cc(S(N)(=O)=O)ccc1OC (centres undefined) [SULPIRIDE] in terms of ALP is 1425.6

---

species on record: Rattus norvegicus; assay: Open TG-GATES - Regimen: Daily Repeat; format: toxicity, organism-based, Sprague-Dawley; parameters: regimen Daily Repeat, gender Male, age 6 weeks; conditions: in vivo, po, 1000 mg/kg, 72 h, tissue Plasma, route gavage, dose level High, time 3 day
Quick list: Na per entry.
State the answer as a number, implicitly in meq/L.

Consider the worked cases shown below.
• CC(C)(S)[C@@H](N)C(=O)O = 144.2
• CCN1CCCC1CNC(=O)c1cc(S(N)(=O)=O)ccc1OC (centres undefined) [SULPIRIDE] = 140
• O=C(N[C@H](CO)[C@H](O)c1ccc([N+](=O)[O-])cc1)C(Cl)Cl = 141.6

O=C(O)c1cccnc1 has a reported Na of 139.4
